system.name: human CARM1 (PRMT4) (Flag- and His-tagged) (Homo sapiens)
Construct: Flag-CARM1-His; made in house; host or cells: HEK 293F cells (BacMam baculovirus)
Sequence (Q86X55 1-585 isoform Q86X55-1): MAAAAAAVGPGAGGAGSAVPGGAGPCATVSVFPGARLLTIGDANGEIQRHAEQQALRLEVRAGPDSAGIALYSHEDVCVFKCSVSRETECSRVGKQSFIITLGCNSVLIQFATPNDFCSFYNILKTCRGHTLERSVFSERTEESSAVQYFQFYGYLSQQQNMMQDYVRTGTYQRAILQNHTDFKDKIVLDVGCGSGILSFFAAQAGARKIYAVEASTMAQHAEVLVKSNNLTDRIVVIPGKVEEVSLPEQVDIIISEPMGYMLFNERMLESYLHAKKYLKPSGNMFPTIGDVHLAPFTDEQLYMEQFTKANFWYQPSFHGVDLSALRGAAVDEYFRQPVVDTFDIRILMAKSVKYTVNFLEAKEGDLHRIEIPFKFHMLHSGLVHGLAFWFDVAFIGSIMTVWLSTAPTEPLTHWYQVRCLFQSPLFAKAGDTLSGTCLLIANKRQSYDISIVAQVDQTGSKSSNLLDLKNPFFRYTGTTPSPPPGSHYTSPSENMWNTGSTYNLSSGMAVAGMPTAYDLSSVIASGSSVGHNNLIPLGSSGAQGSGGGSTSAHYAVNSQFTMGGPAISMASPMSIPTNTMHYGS
assay.text: CARM1 Biochemical Assay (3H-SAM Flashplate, peptide substrate)
conditions.used: single experiment or average of multiple experiments
This section presents molecules with their documented IC50 values.
property: IC50

- CN(CCN)Cc1c[nH]nc1C1=CCOCC1: > 10000 nM
- CN(CCN)Cc1c[nH]nc1/C=C/c1cc(F)cc(F)c1: 310 nM
- CN(CCN)Cc1c[nH]nc1CCc1ccccc1: 3000 nM
- CN(CCN)Cc1c[nH]nc1/C=C/c1cc(C(F)(F)F)cc(C(F)(F)F)c1: 510 nM
- COc1cccc(/C=C/c2n[nH]cc2CN(C)CCN)c1: 90 nM
- CN(CCN)Cc1c[nH]nc1C1CC1: > 10000 nM
- CN(CCN)Cc1c[nH]nc1CCc1ccc(F)cc1: 2780 nM
- CN(CCN)Cc1c[nH]nc1/C=C/c1ccc(C(F)(F)F)cc1: 100 nM
- CC(C)c1n[nH]cc1CN(C)CCN: > 10000 nM
- CNCCN(C)Cc1c[nH]nc1/C=C/c1ccc(OC)cc1: 90 nM
